Below, each entry is listed alongside its reported pEC50.
Biological target: enriched paired helical filament tau protein (ePHF; sarkosyl insoluble tau) (human, UniProt P10636 2-758)
Sequence (P10636 other isoform, or with tags, fused parts or gaps limits assumed): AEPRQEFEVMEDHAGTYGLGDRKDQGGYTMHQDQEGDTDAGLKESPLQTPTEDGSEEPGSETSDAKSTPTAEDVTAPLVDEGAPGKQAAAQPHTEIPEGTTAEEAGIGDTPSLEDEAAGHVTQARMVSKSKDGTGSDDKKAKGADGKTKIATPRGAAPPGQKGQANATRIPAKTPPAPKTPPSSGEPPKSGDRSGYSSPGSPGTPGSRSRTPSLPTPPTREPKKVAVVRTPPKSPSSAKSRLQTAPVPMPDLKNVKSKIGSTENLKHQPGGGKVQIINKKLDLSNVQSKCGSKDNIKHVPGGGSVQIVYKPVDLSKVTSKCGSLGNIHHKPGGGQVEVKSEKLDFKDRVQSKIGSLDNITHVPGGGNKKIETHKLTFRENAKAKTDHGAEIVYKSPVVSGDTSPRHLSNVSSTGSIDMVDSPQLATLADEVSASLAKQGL
Test: direct ELISA, ePHF coated
pEC50: −log10 of the molar value.
observable: pEC50

binder	val
VY003 (antibody, V domains shown) VH: EVQMVESGGGLVQPGGSLTLSCAASGFTFSSYRMNWVRQAPGKGLEWVSYISSSRSAIYYADSVKGRFTISRDNAKNSLYLQMNSLRDEDTAVYYCATLGIGYWGQGTLVTVSS VL: DIVMTQTPLSSPVTLGQPASISCRSSQSLVHSDGNTYLSWLQQRPGQPPRLLIYKISNRFSGVPDRFSGSGAGTDFTLKITRVEAEDVGIYYCMQVTQFPRTFGQGTKVEIR	10.22
VY013 (antibody, V domains shown) VH: QVTLKESGPVLVKPTETLTLTCTVSGFSLINARMAVSWIRQPPGKALEWLAHIFSNDEKSYSTSLKSRLTISKDTSKSQVVLIMTNMDPVDTATYYCARIRGYSYNYGMDVWGQGTTVTVSS VL: DIVMTQSPLSLPVIPGEPASISCRSSQSLLHSNGYIYLDWYLQKPGQSPQLLIYVGSNRASGVPDRFSGSGSGTDFKLKISRVEAEDVGVYYCMQTLQIPRTFGGGTKVEIK	10.22

Data credit: patent US20250243263A1
